B1: TRAF3IP2 (parent)
chain: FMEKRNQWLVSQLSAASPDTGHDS

Variants of: B1
Assay: protein stability index of a GFP-peptide fusion (GPS, HEK-293T) (PSI 1-6); higher = more stable;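 further: lentivirally expressed fusions sorted by FACS into six bins by GFP to DsRed ratio, PSI derived from sequencing read proportions per bin multiplied by bin number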
Conditions: c terminus: a fixed tail appended
protein stability index vs 2: at or above is T, below is F.

// below: answered variants
Textbook exercise: given the entry `D19F` , state whether its protein stability index is greater than or equal to 2.
F

Textbook exercise: given the entry `E3I` , state whether its protein stability index is greater than or equal to 2.
T

Textbook exercise: given the entry `T20Y` , state whether its protein stability index is greater than or equal to 2.
T

Textbook exercise: given the entry `K4D` , state whether its protein stability index is greater than or equal to 2.
T

Textbook exercise: given the entry `T20D` , state whether its protein stability index is greater than or equal to 2.
T

New cases:
Textbook exercise: given the entry `P18C` , state whether its protein stability index is greater than or equal to 2.
T

Textbook exercise: given the entry `S11P` , state whether its protein stability index is greater than or equal to 2.
T

Textbook exercise: given the entry `K4G` , state whether its protein stability index is greater than or equal to 2.
F

Textbook exercise: given the entry `L9P` , state whether its protein stability index is greater than or equal to 2.
T

Textbook exercise: given the entry `S24K` , state whether its protein stability index is greater than or equal to 2.
F

Textbook exercise: given the entry `E3T` , state whether its protein stability index is greater than or equal to 2.
T

Textbook exercise: given the entry `L13P` , state whether its protein stability index is greater than or equal to 2.
T

Textbook exercise: given the entry `S17L` , state whether its protein stability index is greater than or equal to 2.
T

Textbook exercise: given the entry `R5C` , state whether its protein stability index is greater than or equal to 2.
T

Textbook exercise: given the entry `Q7I` , state whether its protein stability index is greater than or equal to 2.
T

Textbook exercise: given the entry `Q7E` , state whether its protein stability index is greater than or equal to 2.
T

Textbook exercise: given the entry `S24N` , state whether its protein stability index is greater than or equal to 2.
T

meta.source: the supplement of paper PMC10567573
